src = patent US20100113372A1

# Tested on: collagenase
# Assay Comment: Inhibitory effect of collagenase expression (collagenase immunoassay of fibroblast culture media)
# Type: cell-based
# Assay Context: human fibroblasts, serum-free DMEM, 1×10^4M for 24 hours; untreated group = 100
Use 70% as the dividing line for Degree of collagenase expression (%), with the line itself on the Criterion met side and lower values as Criterion not met.

Check out these entries, answers already filled in.
[
  {
    "Compound": "CC1OC(OCC2OC(Oc3c(-c4ccc(O)cc4)oc4cc(O)cc(O)c4c3=O)C(O)C(O)C2O)C(O)C(O)C1O (stereo not shown) [Example 4-2, Kaempferol-3-O-rutinoside]",
    "Label": "Criterion met"
  },
  {
    "Compound": "CC1OC(OCC2OC(Oc3c(-c4ccc(O)cc4)oc4cc(O)cc(O)c4c3=O)C(O)C(O)C2O)C(O)C(O)C1O (stereo not shown) [Example 3-3, Kaempferol-3-O-rutinoside]",
    "Label": "Criterion not met"
  }
]

Now look at this entry.
Is it the case that O=C(O[C@@H]1Cc2c(O)cc(O)cc2O[C@@H]1c1cc(O)c(O)c(O)c1)c1cc(O)c(O)c(O)c1 [EGCG, reference compound] has Degree of collagenase expression (%) reaching or exceeding 70%?
Criterion not met

====

Here, each record is paired with measured Degree of collagenase expression (%) data.
# System: collagenase
# Assay Comment: Inhibitory effect of collagenase expression (collagenase immunoassay of fibroblast culture media)
# Type: cell-based
# Assay Context: human fibroblasts, serum-free DMEM, 1×10^4M for 24 hours; untreated group = 100
Record the value in %, omitting the unit from your answer.

Solved entries (count: 3):
[
  {
    "Molecule": "CC1OC(OCC2OC(Oc3c(-c4ccc(O)cc4)oc4cc(O)cc(O)c4c3=O)C(O)C(O)C2O)C(O)C(O)C1O (stereo not shown) [Example 4-3, Kaempferol-3-O-rutinoside]",
    "Readout Unit": "%",
    "Degree of collagenase expression (%)": 70
  },
  {
    "Molecule": "CC1OC(OCC2OC(Oc3c(-c4ccc(O)cc4)oc4cc(O)cc(O)c4c3=O)C(O)C(O)C2O)C(O)C(O)C1O (stereo not shown) [Example 3-2, Kaempferol-3-O-rutinoside]",
    "Readout Unit": "%",
    "Degree of collagenase expression (%)": 71
  },
  {
    "Molecule": "CC1OC(OCC2OC(Oc3c(-c4ccc(O)cc4)oc4cc(O)cc(O)c4c3=O)C(O)C(O)C2O)C(O)C(O)C1O (stereo not shown) [Example 4-1, Kaempferol-3-O-rutinoside]",
    "Readout Unit": "%",
    "Degree of collagenase expression (%)": 68
  }
]

Now for the molecule whose Degree of collagenase expression (%) we want.
For CC1OC(OCC2OC(Oc3c(-c4ccc(O)cc4)oc4cc(O)cc(O)c4c3=O)C(O)C(O)C2O)C(O)C(O)C1O (stereo not shown) [Example 3-1, Kaempferol-3-O-rutinoside] , what is its reported Degree of collagenase expression (%)?
70
